Taken from patent US12281114B2.

Experimental system: human NK3 (Homo sapiens, UniProt P29371)
Sequence (P29371 1-465): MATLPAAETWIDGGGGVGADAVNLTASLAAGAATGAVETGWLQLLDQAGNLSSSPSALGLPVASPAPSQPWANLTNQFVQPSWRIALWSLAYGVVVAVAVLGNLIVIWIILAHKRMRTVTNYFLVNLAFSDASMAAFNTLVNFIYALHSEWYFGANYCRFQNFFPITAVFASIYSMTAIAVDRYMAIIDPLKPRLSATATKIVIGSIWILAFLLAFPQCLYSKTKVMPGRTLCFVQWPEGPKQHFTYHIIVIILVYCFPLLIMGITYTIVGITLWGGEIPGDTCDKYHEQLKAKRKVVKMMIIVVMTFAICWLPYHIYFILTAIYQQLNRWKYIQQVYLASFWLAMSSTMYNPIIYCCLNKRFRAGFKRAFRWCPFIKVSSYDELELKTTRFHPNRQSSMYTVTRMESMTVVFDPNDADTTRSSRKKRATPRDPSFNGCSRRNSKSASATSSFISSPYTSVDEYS
Assay overview: FLIPR calcium assay in antagonist mode (NKB EC70 challenge)
Cond: stable cell line expressing human recombinant NK3; antagonist mode vs EC70 of NKB agonist
Provide the reported IC50 of each item.
One number for each entry, in nM.

Cc1nn(C)cc1-c1ccccc1-c1nc2cc(C(=O)N3CC[C@@H](N4CCNCC4)C3)ccn2c1C (single isomer, unassigned) [Compound 480] = 20.7
Cn1cc(-c2cccc(F)c2-c2nc3cc(C(=O)NC45COC(C)(C4)C5)ccn3c2C#N)c(F)n1 [Compound 845] = 2.61
O=C(N[C@@H]1C[C@@H](O)[C@@H](O)C1)c1ccn2c(Cl)c(-c3c(F)cccc3-c3cn(C4CC4)nc3F)nc2c1 [Compound 852] = 0.97
Cc1c(-c2ccccc2-c2nc3cc(C(=O)N[C@H]4C[C@](C)(C(=O)O)C4)ccn3c2C)cnn1C [Compound 312] = 41.7
CC12CC(NC(=O)c3ccn4c(Cl)c(-c5c(F)cc(F)cc5-c5c[nH]nc5Cl)nc4c3)(CO1)C2 [Compound 788] = 1.03
Cc1nn(C)cc1-c1c(F)cncc1-c1nc2cc(C(=O)N[C@H]3C[C@](C)(O)C3)ccn2c1Cl [Compound 824] = 5.89
Cn1cc(-c2cccc(F)c2-c2nc3cc(C(=O)N[C@H]4CC[C@@H](CO)OC4)ccn3c2C#N)c(F)n1 [Compound 926] = 2.21
Cc1nn(C)cc1-c1ccccc1-c1nc2cc(C(=O)NC[C@@H](C)N3CCNCC3)ccn2c1Cl [Compound 797] = 4.63
Cc1nn(C)cc1-c1ccccc1-c1nc2cc(C(=O)N3C[C@@H]4[C@@H](O)[C@@H]4C3)ccn2c1Cl [Compound 647] = 9.16
Cc1nn(C)cc1-c1ccccc1-c1nc2cc(C(=O)N3CC(=O)N[C@@H](CO)C3)ccn2c1Cl [Compound 638] = 25.8

// batch mode: one IC50 value per listed entry
1. Cc1nn(C)cc1-c1ccccc1-c1nc2cc(C(=O)N[C@H]3C[C@@H](CO)C3)ccn2c1Cl [Compound 643]
2. Cc1nn(C)cc1-c1ccccc1-c1nc2cc(C(=O)NCC34CC(CO)(CO3)C4)ccn2c1Cl [Compound 616]
3. Cc1nn(C)cc1-c1ccccc1-c1nc2cc(C(=O)N3CCC4(CC(CO)C4)C3)ccn2c1Cl (stereo not shown) [Compound 792]
4. Cc1n[nH]cc1-c1ccccc1-c1nc2cc(C(=O)N[C@@H]3CO[C@H]4[C@@H]3OC[C@H]4O)ccn2c1Cl [Compound 475]

A:
1. 1.08
2. 1.45
3. 2.09
4. 5.74

Provide IC50 values for the following items, in order.
1. Cc1nn(C)cc1-c1ccccc1-c1nc2cc(C(=O)N3CC[C@H](N4CCNCC4)C3)ccn2c1C (single isomer, unassigned) [Compound 481]
2. CCn1cc(-c2ccccc2-c2nc3cc(C(=O)N[C@@H]4CO[C@H]5[C@@H]4OC[C@H]5O)ccn3c2Cl)c(C)n1 [Compound 476]
3. Cc1nn(C)cc1-c1ccc(F)cc1-c1nc2cc(C(=O)N3C[C@@H]4C[C@H]3C(=O)N4)ccn2c1Cl [Compound 800]
4. Cn1cc(-c2cccc(F)c2-c2nc3cc(C(=O)N[C@H]4C[C@@](O)(CO)C4)ccn3c2Cl)c(F)n1 [Compound 841]
5. CO[C@H]1C[C@@H](NC(=O)c2ccn3c(F)c(-c4c(F)cc(F)cc4-c4c[nH]nc4Cl)nc3c2)C1 [Compound 833]
6. Cn1cc(-c2cccc(F)c2-c2nc3cc(C(=O)NC45CCC(CO)(C4)OC5)ccn3c2Cl)c(F)n1 (stereo not shown) [Compound 854]

A:
1: 16.1; 2: 3.31; 3: 8.07; 4: 1.25; 5: 2.68; 6: 1.42

For each of the molecules below, state IC50.
1. Cn1cc(-c2ccccc2-c2nc3cc(C(=O)NC4CC5(C4)CS(=O)(=O)C5)ccn3c2Cl)c(F)n1 [Compound 849]
2. Cn1cc(-c2cccc(F)c2-c2nc3cc(C(=O)N[C@H]4CC[C@](C)(O)CC4)ccn3c2Cl)cn1 [Compound 918]
3. Cc1nn(C)cc1-c1ccccc1-c1nc2cc(C(=O)N3CCN(C4CCNC4)CC3)ccn2c1Cl (stereo not shown) [Compound 443]
4. Cn1cc(-c2cc(F)cc(F)c2-c2nc3cc(C(=O)N[C@H]4C[C@@](O)(CO)C4)ccn3c2Cl)c(F)n1 [Compound 923]
5. CC12CC(NC(=O)c3ccn4c(Cl)c(-c5c(F)cccc5-c5cn[nH]c5)nc4c3)(C1)C2 [Compound 856]
6. Cn1cc(-c2cccc(F)c2-c2nc3cc(C(=O)N[C@H]4CC5(C[C@@H](O)C5)C4)ccn3c2Cl)c(F)n1 (stereo partly shown) [Compound 921]
7. Cc1nn(C)cc1-c1cccc(F)c1-c1nc2cc(C(=O)N3C[C@@H]4C[C@H]3C(=O)N4)ccn2c1Cl [Compound 487]

A:
1: 0.94; 2: 3.48; 3: 11.3; 4: 2.36; 5: 11.8; 6: 0.71; 7: 2.21

Bench note, human NK3 (Homo sapiens, UniProt P29371): entry Cc1nn(C)cc1-c1cccc(F)c1-c1nc2cc(C(=O)N[C@H]3CO[C@H]4[C@@H]3OC[C@H]4O)ccn2c1C#N [Compound 782] , its IC50 = 4.8
